- Target under test: natural β-amyloid peptide β-AP1-40 (human)
- Sequence (peptide, as listed by the source): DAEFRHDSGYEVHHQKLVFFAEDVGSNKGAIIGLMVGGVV
- Measurement notes: cell-based or functional assay
Square brackets hold non-standard residues; d marks the D form. Ends that are not written are not given here. * marks the point of attachment. Cholyl = C[C@H](CCC(=O)*)[C@H]1CC[C@H]2[C@@H]3[C@H](O)C[C@@H]4C[C@H](O)CC[C@]4(C)[C@H]3C[C@H](O)[C@]12C; Deoxycholoyl = C[C@H](CCC(=O)*)[C@H]1CC[C@H]2[C@@H]3CC[C@@H]4C[C@H](O)CC[C@]4(C)[C@H]3C[C@H](O)[C@]12C; iminobiotinyl = N=C1N[C@H]2[C@H](CS[C@H]2CCCCC(=O)*)N1; Tyr(3-I) = N[C@@H](Cc1ccc(O)c(I)c1)C(=O)O; NANA = N-acetyl neuraminyl
Provide the recorded % Inucl'n; nucleation assay; 100 mole % for the entries that follow.
Answers are plain numbers, in %.

These recorded examples may help you get a feel for the data.
INSERT INTO measurements (binder, quantitative_readout) VALUES
  ('{NANA}-HQKLVFF-NH2 [NANA-HQKLVFF-nh2]', -15),
  ('Cholyl-Phe-Phe-Ala-OH (SMILES C[C@H](NC(=O)[C@H](Cc1ccccc1)NC(=O)[C@H](Cc1ccccc1)NC(=O)CC[C@@H](C)[C@H]1CC[C@H]2[C@@H]3[C@H](O)C[C@@H]4C[C@H](O)CC[C@]4(C)[C@H]3C[C@H](O)[C@]12C)C(=O)O) [CA-FFA-oh]', 51),
  ('Deoxycholoyl-LVFFA-OH [DeoxyCA-LVFFA-oh]', -114),
  ('H-KLVFF-NH2 [h-KLVFF-nh2]', -9),
  ('Cholyl-VFFA-OH (SMILES CC(C)[C@H](NC(=O)CC[C@@H](C)[C@H]1CC[C@H]2[C@@H]3[C@H](O)C[C@@H]4C[C@H](O)CC[C@]4(C)[C@H]3C[C@H](O)[C@]12C)C(=O)N[C@@H](Cc1ccccc1)C(=O)N[C@@H](Cc1ccccc1)C(=O)N[C@@H](C)C(=O)O) [CA-VFFA-oh]', 76),
  ('Cholyl-FFVLA-OH (SMILES CC(C)C[C@H](NC(=O)[C@@H](NC(=O)[C@H](Cc1ccccc1)NC(=O)[C@H](Cc1ccccc1)NC(=O)CC[C@@H](C)[C@H]1CC[C@H]2[C@@H]3[C@H](O)C[C@@H]4C[C@H](O)CC[C@]4(C)[C@H]3C[C@H](O)[C@]12C)C(C)C)C(=O)N[C@@H](C)C(=O)O) [CA-FFVLA-oh]', 100);

Please report % Inucl'n; nucleation assay; 100 mole % for every entry that follows.
1. Cholyl-AVAFA-OH (SMILES CC(C)[C@H](NC(=O)[C@H](C)NC(=O)CC[C@@H](C)[C@H]1CC[C@H]2[C@@H]3[C@H](O)C[C@@H]4C[C@H](O)CC[C@]4(C)[C@H]3C[C@H](O)[C@]12C)C(=O)N[C@@H](C)C(=O)N[C@@H](Cc1ccccc1)C(=O)N[C@@H](C)C(=O)O) [CA-AVAFA-oh]
2. Cholyl-KTVFF-OH (SMILES CC(C)[C@H](NC(=O)[C@@H](NC(=O)[C@H](CCCCN)NC(=O)CC[C@@H](C)[C@H]1CC[C@H]2[C@@H]3[C@H](O)C[C@@H]4C[C@H](O)CC[C@]4(C)[C@H]3C[C@H](O)[C@]12C)[C@@H](C)O)C(=O)N[C@@H](Cc1ccccc1)C(=O)N[C@@H](Cc1ccccc1)C(=O)O) [CA-KTVFF-oh]
3. iminobiotinyl-KLVFF-OH [iminobiotinyl-Aβ16-20]
4. Cholyl-KLTFF [cholyl-Aβ16-20 (Val18->Thr)]
5. Cholyl-LV[Tyr(3-I)]FA-OH [CA-LV(IY)FA-oh]
6. Cholyl-[dL][dV][dF][dF][dA]-OH [CA-LVFFA-oh (all D amino acids)]

[-15, 18, 86, -16, 100, 27]
